B1: Ribonuclease HI, P0A7Y4 (parent)
chain: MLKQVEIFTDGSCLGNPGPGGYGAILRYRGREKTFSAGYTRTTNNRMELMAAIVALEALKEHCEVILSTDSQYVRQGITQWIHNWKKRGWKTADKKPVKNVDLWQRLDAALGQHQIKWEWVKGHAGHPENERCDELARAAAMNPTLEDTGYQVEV

Variants of: B1
runConditions: Escherichia coli (strain K12); pH 5.5; 25 °C; Urea; CD; Sodium acetate 10 mM; NaCl 0.1 M; reversible: yes; structure 2RN2; whole UniProt chain shown
Each item that follows carries a reported denaturant m value.
Put your answer as a value accompanied by its unit after it.

Solved cases below.
mutation=S68A result="2.06 kcal/mol/M"
mutation=S68T result="1.95 kcal/mol/M"
mutation=S68V result="2.13 kcal/mol/M"

Next item in the queue.
Measured denaturant m value, S68G : 2 kcal/mol/M
